Assay: Acute toxicity in iv dosed rat
Format: organism-based
Details: in vivo
measure_name: LD50 (mg/kg)
The reply should contain only the number, in mg/kg.

Prompt line: Reported LD50 for `C=C1[C@H]2C[C@@]3([C@@H]1OC(C)=O)[C@@H](CC2=O)[C@@]12[C@@H](OC(C)=O)CC[C@@]4(C)CN(CC)[C@@H]1[C@@H]3C[C@H]42` : what is it?
Response line: 131

Prompt line: `C=C1[C@H]2C[C@@]3([C@@H]1O)[C@@H](CC2=O)[C@@]12[C@@H](OC(=O)c4ccccc4)CC[C@@]4(C)CN(CC)[C@@H]1[C@@H]3C[C@H]42` , same question.
Response line: 41

Prompt line: C=C1[C@H]2C[C@@]3([C@@H]1O)[C@@H](CC2=O)[C@]12[C@@H]4C[C@H]3[C@H]1N(CC)C[C@]4(C)CC[C@@H]2O [SONGORINE] , same question.
Response line: 142

Prompt line: `C=C1[C@H]2C[C@@]3([C@@H]1O)[C@@H](CC2=O)[C@@]12[C@@H](OC(C)=O)CC[C@@]4(C)CN(CC)[C@@H]1[C@@H]3C[C@H]42` , same question.
Response line: 150

* * *

Consider the following molecules; for each one, report its selectivity ratio.
Assay: Antiarrhythmic index, ratio of LD50 for iv dosed rat to ED50 for antiarrhythmic activity in iv dosed aconitine-induced rat arrhythmia model
Format: toxicity, organism-based
Conditions: in vivo, read-out: Ratio LD50/ED50
Number only, please.

Prompt line: Reported selectivity ratio for `C=C1[C@H]2C[C@@]3([C@@H]1OC(C)=O)[C@@H](CC2=O)[C@@]12[C@@H](OC(C)=O)CC[C@@]4(C)CN(CC)[C@@H]1[C@@H]3C[C@H]42` : what is it?
Response line: 7.3

Prompt line: `C=C1[C@H]2C[C@@]3([C@@H]1O)[C@@H](CC2=O)[C@]12[C@@H]4C[C@H]3[C@H]1N(CC)C[C@]4(C)CC[C@@H]2O` , same question.
Response line: 19

Prompt line: `C=C1[C@H]2C[C@@]3([C@@H]1O)[C@@H](CC2=O)[C@@]12[C@@H](OC(=O)c4ccccc4)CC[C@@]4(C)CN(CC)[C@@H]1[C@@H]3C[C@H]42` , same question.
Response line: 108

Prompt line: `C=C1[C@H]2C[C@@]3([C@@H]1O)[C@@H](CC2=O)[C@@]12[C@@H](OC(C)=O)CC[C@@]4(C)CN(CC)[C@@H]1[C@@H]3C[C@H]42` , same question.
Response line: 10

Origin of values: ChEMBL document CHEMBL4152185
